Test system: PC-3 prostate
Test: NCI-60 one-dose screen, 48 h
Conditions: 10 µM unless noted
The panel holds about 83,000 compounds, 20% with a hit somewhere; the sample as a whole holds those more often. The source made the active and inactive calls. How the source made its calls: active means growth percent below 10; inactive means the rest.
Entry note: the call must match one of active, inactive

Worked examples follow.
COc1ccc(C(=O)Nc2ccc3nc(N4CCCCC4)cc(C)c3c2)cc1OC ... inactive
CCOC(=O)c1c(C=O)nc2ccccc2c1/C=C/c1ccc(Cl)cc1 ... inactive
O=C(Nc1ccc(F)cc1F)c1cc(Br)ccc1O ... active

[ask] Could you please tell me the result logged for `COc1cccc(/C(C#N)=C/c2nc3c(N4CCOCC4)nc(Cl)nc3n2C)c1` in this assay?
[reply] active

[ask] Subsequent entry: O=C(CN1C=NC2C(N3CCOCC3)=NC=NC21)c1cccc2ccccc12 (stereo not given)
[reply] inactive

[ask] Subsequent entry: `COc1nccc2cc3c(=O)n4c(cc5ccccc54)c(=O)n3c12`
[reply] inactive
